# Measurement Notes: Selectivity index, ratio of IC50 for tPA (unknown origin) to IC50 for FXIIa (unknown origin)

Smiles Str: Nc1nc(-c2ccccn2)nn1C(=O)c1cccc2ccccc12
Ratio IC50: > 140

Smiles Str: CC(C)N1CCN(c2ccc(C(=O)n3nc(-c4ccccn4)nc3N)c3ccccc23)CC1
Ratio IC50: > 670

Smiles Str: Nc1nc(-c2ccccn2)nn1C(=O)c1ccc(NC(=O)c2ccccc2)cc1
Ratio IC50: > 30

Smiles Str: CC(C)N1CCCN(c2ccc(C(=O)n3nc(-c4ccccn4)nc3N)c3ccccc23)CC1
Ratio IC50: > 1190

Smiles Str: Nc1nc(-c2ccccn2)nn1C(=O)c1ccc(N2CCN(C3COC3)CC2)c2ccccc12
Ratio IC50: > 640

###

// values below are reported Ratio IC50
# Measurement Notes: Selectivity index, ratio of IC50 for chymotrypsin (unknown origin) to IC50 for FXIIa (unknown origin)

Smiles Str: Nc1nc(-c2ccccn2)nn1C(=O)c1cccc2ccccc12
Ratio IC50: > 140
--
Smiles Str: CC(C)N1CCCN(c2ccc(C(=O)n3nc(-c4ccccn4)nc3N)c3ccccc23)CC1
Ratio IC50: > 1190
--
Smiles Str: Nc1nc(-c2ccccn2)nn1C(=O)c1ccc(N2CCN(C3COC3)CC2)c2ccccc12
Ratio IC50: > 640
--
Smiles Str: Nc1nc(-c2ccccn2)nn1C(=O)c1ccc(NC(=O)c2ccccc2)cc1
Ratio IC50: > 30
--
Smiles Str: CC(C)N1CCN(c2ccc(C(=O)n3nc(-c4ccccn4)nc3N)c3ccccc23)CC1
Ratio IC50: > 670

###

// values below are reported Ratio IC50
# Measurement Notes: Selectivity index, ratio of IC50 for plasmin (unknown origin) to IC50 for FXIIa (unknown origin)

Smiles Str: Nc1nc(-c2ccccn2)nn1C(=O)c1ccc(N2CCN(C3COC3)CC2)c2ccccc12
Ratio IC50: > 640
//
Smiles Str: Nc1nc(-c2ccccn2)nn1C(=O)c1ccc(NC(=O)c2ccccc2)cc1
Ratio IC50: > 30
//
Smiles Str: Nc1nc(-c2ccccn2)nn1C(=O)c1cccc2ccccc12
Ratio IC50: > 140
//
Smiles Str: CC(C)N1CCCN(c2ccc(C(=O)n3nc(-c4ccccn4)nc3N)c3ccccc23)CC1
Ratio IC50: > 1190
//
Smiles Str: CC(C)N1CCN(c2ccc(C(=O)n3nc(-c4ccccn4)nc3N)c3ccccc23)CC1
Ratio IC50: > 670

###

// values below are reported IC50
# Target Under Test: Trypsin (Homo sapiens, UniProt P07477+P07478+P35030)
# Measurement Notes: Inhibition of trypsin (unknown origin) using Bz-lle-Glu(gamma-OR)-Gly-Arg-pNA.HCl as chromogenic substrate incubated for 20 mins followed by substrate addition by spectrophotometric analysis
# Format: protein assay

Smiles Str: Nc1nc(-c2ccccn2)nn1C(=O)c1ccc(N2CCN(C3COC3)CC2)c2ccccc12
IC50: > 25 µM

Smiles Str: Nc1nc(-c2ccccn2)nn1C(=O)c1cccc2ccccc12
IC50: > 5 µM

Smiles Str: CC(C)N1CCCN(c2ccc(C(=O)n3nc(-c4ccccn4)nc3N)c3ccccc23)CC1
IC50: > 25 µM

Smiles Str: Nc1nc(-c2ccccn2)nn1C(=O)c1ccc(NC(=O)c2ccccc2)cc1
IC50: > 5 µM

Smiles Str: CC(C)N1CCN(c2ccc(C(=O)n3nc(-c4ccccn4)nc3N)c3ccccc23)CC1
IC50: > 25 µM

###

# Target Under Test: Coagulation factor XII (Homo sapiens)
# Measurement Notes: Inhibition of FXIIa (unknown origin) using H-D-Pro-Phe-Arg-pNA as substrate at 500 nM incubated for 20 mins followed by substrate addition by spectrophotometric analysis relative to control

Smiles Str: Nc1nc(-c2ccccn2)nn1C(=O)c1ccc(N2CCC3(CC2)CC3)cc1
inhibition (%): 21
//
Smiles Str: CC(C)N1CCN(c2ccc(C(=O)n3nc(-c4ccc(Cl)cn4)nc3N)cc2)CC1
inhibition (%): 77
//
Smiles Str: CN(C)CCN(C)c1ccc(C(=O)n2nc(-c3ccccn3)nc2N)cc1
inhibition (%): 72
//
Smiles Str: Cc1cc(C(=O)n2nc(-c3ccccn3)nc2N)ccc1N1CCN(C(C)C)CC1
inhibition (%): 82
//
Smiles Str: COc1cc(C(=O)n2nc(-c3ccccn3)nc2N)ccc1N1CCN(C(C)C)CC1
inhibition (%): 43
//
Smiles Str: CC(C)N1CCN(c2ccc(C(=O)n3nc(-c4ccc(F)cn4)nc3N)cc2)CC1
inhibition (%): 79
//
Smiles Str: CN1CCC(c2ccc(C(=O)n3nc(-c4ccccn4)nc3N)cc2)CC1
inhibition (%): 34
//
Smiles Str: Nc1nc(-c2ccccn2)nn1C(=O)c1cccc(N2CCC3(CC2)OCCO3)c1
inhibition (%): 40
//
Smiles Str: CN1CCN(c2ccc(C(=O)n3nc(-c4cccnc4)nc3N)cc2)CC1
inhibition (%): 57
//
Smiles Str: Nc1nc(-c2ccccn2)nn1C(=O)c1ccc(NC(=O)c2ccccc2)cc1F
inhibition (%): 28

###

# Measurement Notes: Apparent volume of distribution in BALB/c mouse at 1 mg/kg, iv measured upto 24 hrs by LC-MS/MS analysis
# Assay type: ADME, organism-based
# Protocol Conditions: in vivo, read-out: Vz
Result Type: Vd (L/kg)

Smiles Str: CC(C)N1CCCN(c2ccc(C(=O)n3nc(-c4ccccn4)nc3N)c3ccccc23)CC1
Readout Unit: L/kg
Value Measured: 105

###

# Target Under Test: Plasminogen (Homo sapiens)
# Sequence (P00747 97-580 limits assumed): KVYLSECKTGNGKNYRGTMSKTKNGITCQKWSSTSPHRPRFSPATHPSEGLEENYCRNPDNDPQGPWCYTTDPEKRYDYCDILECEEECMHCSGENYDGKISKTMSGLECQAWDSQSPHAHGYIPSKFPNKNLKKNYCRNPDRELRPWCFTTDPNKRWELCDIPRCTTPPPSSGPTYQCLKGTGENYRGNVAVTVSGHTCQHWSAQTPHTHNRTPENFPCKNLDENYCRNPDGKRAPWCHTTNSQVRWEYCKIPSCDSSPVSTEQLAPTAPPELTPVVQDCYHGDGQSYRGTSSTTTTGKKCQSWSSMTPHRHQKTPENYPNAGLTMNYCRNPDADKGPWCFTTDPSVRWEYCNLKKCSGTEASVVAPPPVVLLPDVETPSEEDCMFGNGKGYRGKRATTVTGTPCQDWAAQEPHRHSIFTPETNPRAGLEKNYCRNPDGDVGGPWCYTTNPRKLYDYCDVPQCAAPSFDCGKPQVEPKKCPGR
# Sequence (P00747 581-810 limits assumed): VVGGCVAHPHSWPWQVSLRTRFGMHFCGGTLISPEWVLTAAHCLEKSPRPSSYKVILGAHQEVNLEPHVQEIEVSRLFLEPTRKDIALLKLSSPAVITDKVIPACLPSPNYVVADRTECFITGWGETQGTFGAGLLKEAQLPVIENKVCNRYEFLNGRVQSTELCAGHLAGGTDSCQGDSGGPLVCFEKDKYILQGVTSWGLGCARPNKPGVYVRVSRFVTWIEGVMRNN
pIC50: −log10 of the molar value.

Smiles Str: Nc1nc(-c2ccccn2)nn1C(=O)c1ccc(NC(=O)c2ccccc2)cc1
pIC50: < 5.30

###

# Measurement Notes: Selectivity index, ratio of IC50 for thrombin (unknown origin) to IC50 for FXIIa (unknown origin)
Result Type: Ratio IC50

Smiles Str: Nc1nc(-c2ccccn2)nn1C(=O)c1ccc(NC(=O)c2ccccc2)cc1
Value Measured: 770
//
Smiles Str: Nc1nc(-c2ccccn2)nn1C(=O)c1ccc(N2CCN(C3COC3)CC2)c2ccccc12
Value Measured: 830
//
Smiles Str: CC(C)N1CCN(c2ccc(C(=O)n3nc(-c4ccccn4)nc3N)c3ccccc23)CC1
Value Measured: 910
//
Smiles Str: CC(C)N1CCCN(c2ccc(C(=O)n3nc(-c4ccccn4)nc3N)c3ccccc23)CC1
Value Measured: 210
//
Smiles Str: Nc1nc(-c2ccccn2)nn1C(=O)c1cccc2ccccc12
Value Measured: 10

###

# Measurement Notes: Selectivity index, ratio of IC50 for FXa (unknown origin) to IC50 for FXIIa (unknown origin)
Result Type: Ratio IC50

Smiles Str: Nc1nc(-c2ccccn2)nn1C(=O)c1ccc(N2CCN(C3COC3)CC2)c2ccccc12
Value Measured: > 640

Smiles Str: Nc1nc(-c2ccccn2)nn1C(=O)c1cccc2ccccc12
Value Measured: > 140

Smiles Str: CC(C)N1CCN(c2ccc(C(=O)n3nc(-c4ccccn4)nc3N)c3ccccc23)CC1
Value Measured: > 670

Smiles Str: CC(C)N1CCCN(c2ccc(C(=O)n3nc(-c4ccccn4)nc3N)c3ccccc23)CC1
Value Measured: > 1190

Smiles Str: Nc1nc(-c2ccccn2)nn1C(=O)c1ccc(NC(=O)c2ccccc2)cc1
Value Measured: > 30

###

# Target Under Test: Coagulation factor XII (Homo sapiens)
# Sequence (whole entry): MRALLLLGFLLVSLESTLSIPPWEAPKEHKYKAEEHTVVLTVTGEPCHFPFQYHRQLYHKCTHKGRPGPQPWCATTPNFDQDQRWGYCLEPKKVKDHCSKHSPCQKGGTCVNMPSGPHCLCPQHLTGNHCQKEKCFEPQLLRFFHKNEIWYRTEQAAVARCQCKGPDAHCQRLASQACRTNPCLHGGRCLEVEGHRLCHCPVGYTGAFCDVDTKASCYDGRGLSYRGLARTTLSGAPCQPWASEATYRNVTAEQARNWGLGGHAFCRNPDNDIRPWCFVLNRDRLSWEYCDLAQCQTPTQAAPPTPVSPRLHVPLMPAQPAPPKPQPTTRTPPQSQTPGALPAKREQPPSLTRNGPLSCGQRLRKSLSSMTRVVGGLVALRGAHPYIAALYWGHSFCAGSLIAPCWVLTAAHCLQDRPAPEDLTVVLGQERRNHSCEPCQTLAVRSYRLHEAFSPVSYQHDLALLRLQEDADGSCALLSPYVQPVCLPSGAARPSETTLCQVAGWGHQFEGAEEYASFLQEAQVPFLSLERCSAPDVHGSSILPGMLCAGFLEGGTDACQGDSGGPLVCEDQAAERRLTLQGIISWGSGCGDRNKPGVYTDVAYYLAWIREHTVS
# Measurement Notes: Inhibition of FXIIa (unknown origin) using H-D-Pro-Phe-Arg-pNA as substrate at 500 nM incubated for 20 mins followed by substrate addition by spectrophotometric analysis relative to control
Result Type: inhibition (%)

Smiles Str: CC(C)C[C@@H](NC1CCCC1)C(=O)Nc1ccc(C(=O)n2nc(-c3ccccn3)nc2N)cc1
Result Type: inhibition
Value Measured: 28
//
Smiles Str: Nc1nc(-c2ccccn2)nn1C(=O)c1ccc(NC(=O)c2cccc3c2OCCO3)cc1
Result Type: inhibition
Value Measured: 62
//
Smiles Str: Nc1nc(-c2ccccn2)nn1C(=O)c1ccc(NC(=O)[C@@H](Cc2ccccc2)NC2CCCCC2)cc1
Result Type: inhibition
Value Measured: 24
//
Smiles Str: Nc1nc(-c2ccccn2)nn1C(=O)c1ccc(N2CCN(CCO)CC2)cc1
Result Type: inhibition
Value Measured: 63
//
Smiles Str: Nc1nc(-c2ccccn2)nn1C(=O)c1ccc(NC(=O)c2cccc3c2CCCC3)cc1
Result Type: inhibition
Value Measured: 62
//
Smiles Str: Nc1nc(-c2ccccn2)nn1C(=O)c1ccc(NC(=O)c2ccccc2)cc1
Result Type: inhibition
Value Measured: 74
//
Smiles Str: CN1CCN(c2ccc(C(=O)n3nc(-c4ccccn4)nc3N)cc2)CC1
Result Type: inhibition
Value Measured: 72
//
Smiles Str: COCCN1CCN(c2ccc(C(=O)n3nc(-c4ccccn4)nc3N)cc2)CC1
Result Type: inhibition
Value Measured: 65
//
Smiles Str: Nc1nc(-c2ccccn2)nn1C(=O)c1ccc(NC(=O)[C@@H](CC2CCCCC2)NC2CCCCC2)cc1
Result Type: inhibition
Value Measured: 33
//
Smiles Str: CC(C)N1CCN(c2ccc(C(=O)n3nc(-c4ccccn4)nc3N)cc2)CC1
Result Type: inhibition
Value Measured: 79
//
Smiles Str: CN1CC=C(c2ccc(C(=O)n3nc(-c4ccccn4)nc3N)cc2)CC1
Result Type: inhibition
Value Measured: 40
//
Smiles Str: Nc1nc(-c2ccccn2)nn1C(=O)c1ccc(N2CCC3(CC2)OCCO3)cc1
Result Type: inhibition
Value Measured: 70
//
Smiles Str: Cc1cc(C(=O)n2nc(-c3ccccn3)nc2N)cc(C)c1N1CCN(C(C)C)CC1
Result Type: inhibition
Value Measured: 28
//
Smiles Str: Nc1nc(-c2ccccn2)nn1C(=O)c1ccc(NC(=O)c2ccccc2)c(F)c1
Result Type: inhibition
Value Measured: 9
//
Smiles Str: CN1CCN(c2cccc(C(=O)n3nc(-c4ccccn4)nc3N)c2)CC1
Result Type: inhibition
Value Measured: 21
//
Smiles Str: CN1CCN(c2ccc(C(=O)n3nc(-c4ccncc4)nc3N)cc2)CC1
Result Type: inhibition
Value Measured: 71
//
Smiles Str: Nc1nc(-c2ccccn2)nn1C(=O)c1ccc(NC(=O)c2cccc3ccccc23)cc1
Result Type: inhibition
Value Measured: 60
//
Smiles Str: Nc1nc(-c2ccccn2)nn1C(=O)c1ccc(NCc2ccccc2)cc1
Result Type: inhibition
Value Measured: 39
